System: Puccinia graminis (f. sp. tritici Race 15B-2)
Assay: whole plant or invertebrate
Type: in vivo
Conditions: 336 h, read-out: % control WSR
# Lookup of reported pest or weed control at 100 ppm keyed by entry
assay endpoint: pest or weed control at 100 ppm (%)

>>> reading("CCCCCCCCNC(=O)/C=C\\SC(C(C)=O)C(C)=O [Example 1]")
50
>>> reading("CCCCCCCCNC(=O)/C=C\\SC(C(=O)c1ccccc1)C(=O)c1ccccc1 [Example 67]")
0
>>> reading("CCCCCCCCNC(=O)/C=C\\SC(C(=O)Nc1ccccc1OC)C(=O)OCC (centres unmarked) [Example 53]")
0
>>> reading("CCCCCCCCNC(=O)/C=C\\SC(C(=O)c1ccccc1)C(=O)c1cccn1C (centres unmarked) [Example 68]")
0
>>> reading("CCCCCCCCNC(=O)/C=C\\SC(C(=O)Nc1cccc(C)c1)C(=O)OCC (centres unmarked) [Example 54]")
0

----------
Recorded pest or weed control at 200 ppm, one value per entry.
Tested on: Puccinia recondita (f. sp. tritici Races PKB and PLD)
Assay: whole plant or invertebrate
Type: in vivo
Conditions: Puccinia recondita, 240 h; read-out: % control WLR
assay endpoint: pest or weed control at 200 ppm (%)

>>> reading("CCCCCCCCNC(=O)/C=C\\SC(C(=O)NCc1ccc(Cl)cc1)C(=O)OCC (stereo not drawn)")
50
>>> reading("CCCCCCCCCCCCNC(=O)C(S/C=C\\C(=O)NCCCCCCCC)C(=O)OCC (stereo not drawn)")
50
>>> reading("CCCCCCCCNC(=O)/C=C\\SC(C(=O)NCc1cccc(OC)c1)C(=O)OCC (stereo not drawn)")
75
>>> reading("CCCCCCCCNC(=O)/C=C\\SC(C(=O)Nc1ccccc1Cl)C(=O)OCC (stereo not drawn)")
75
>>> reading("CCCCCCCCNC(=O)/C=C\\SC(C(C)=O)C(=O)OCC (stereo not drawn)")
50
>>> reading("CCCCCCCCNC(=O)/C=C\\SC(C(=O)NCCCCCCCC)C(=O)OCC (stereo not drawn)")
74
>>> reading("CCCCCCCCNC(=O)/C=C\\SC(C(=O)NCCCCCC)C(=O)OCC (stereo not drawn)")
75
>>> reading("CCCCCCCCNC(=O)/C=C\\SC(C(=O)NCc1ccccc1)C(=O)OCC (stereo not drawn)")
75
>>> reading("CCCCCCCCNC(=O)/C=C\\SC(C(C)=O)C(=O)NCc1ccccc1 (stereo not drawn)")
75

----------
Test system: Piricularia oryzae
Experiment: whole plant or invertebrate
Type: in vivo
Details: Pyricularia oryzae, read-out: % control RB
Define the label as 1 when pest or weed control at 200 ppm is strictly less than 50% and as -1 in all remaining cases.

>>> assigned_class("CCCCCCCCNC(=O)/C=C\\SC(C(=O)NCCCCCCCC)C(=O)OCC (stereo not shown)")
1
>>> assigned_class("CCCCCCCCNC(=O)/C=C\\SC(C(=O)NC(C)CC)C(=O)OCC (stereo not shown)")
1
>>> assigned_class("CCCCCCCCNC(=O)/C=C\\SC(C(=O)CC)C(=O)CC")
-1
>>> assigned_class("CCCCCCCCNC(=O)/C=C\\SC(C(=O)NCc1ccc(Cl)cc1)C(=O)OCC (stereo not shown)")
-1
>>> assigned_class("CCCCCCCCNC(=O)/C=C\\SC(C(C)=O)C(=O)Nc1ccccc1 (stereo not shown)")
-1
>>> assigned_class("CCCCCCCCNC(=O)/C=C\\SC(C(=O)NCc1ccc(C)cc1)C(=O)OCC (stereo not shown)")
-1
>>> assigned_class("CCCCCCCNC(=O)/C=C\\SC(C(C)=O)C(C)=O")
-1
>>> assigned_class("CCCCCCCCNC(=O)/C=C\\SC(C(=O)NCCCCCC)C(=O)OCC (stereo not shown)")
1
>>> assigned_class("CCCCCCCCNC(=O)/C=C\\SC(C(=O)NCc1cccc(OC)c1)C(=O)OCC (stereo not shown)")
-1
>>> assigned_class("CCCCCCCCNC(=O)/C=C\\SC(C(=O)NCCC)C(=O)OCC (stereo not shown)")
1
>>> assigned_class("CCCCCCCCNC(=O)/C=C\\SC(C(=O)NCc1ccccc1)C(=O)OCC (stereo not shown)")
-1
>>> assigned_class("CCCCCCCCCCCCNC(=O)C(S/C=C\\C(=O)NCCCCCCCC)C(=O)OCC (stereo not shown)")
1
>>> assigned_class("CCCCCCCCNC(=O)/C=C\\SC(C(C)=O)C(=O)C1CC1 (stereo not shown)")
-1
>>> assigned_class("CCCCCCCCNC(=O)/C=C\\SC(C(=O)NCC(C)C)C(=O)OCC (stereo not shown)")
1
>>> assigned_class("CCCCCCCCNC(=O)/C=C\\SC(C(C)=O)C(=O)CC (stereo not shown)")
-1
>>> assigned_class("CCCCCCCCNC(=O)/C=C\\SC(C(C)=O)C(=O)Nc1ccccc1OC (stereo not shown)")
-1
